# System: spleen cells from CBA and BALB/c mice
# assay_comment: Mixed lymphocyte reaction (two-way MLR)
# Assay type: cell-based
# details: Mus musculus, four days of incubation, 3H-thymidine incorporation
parameter_measured: IC50 (nM)
Express it in nM; write the number only.

[ask] Find the recorded IC50 belonging to Cc1cc(NC(=O)CCNC(=O)Nc2nc(C)c(-c3ccc(-n4cccn4)cc3)s2)no1 and report it.
[reply] 26
